- experimental_system: Luciferin 4-monooxygenase (Photinus pyralis) (UniProt P08659)
- Sequence (P08659 whole entry, looked up): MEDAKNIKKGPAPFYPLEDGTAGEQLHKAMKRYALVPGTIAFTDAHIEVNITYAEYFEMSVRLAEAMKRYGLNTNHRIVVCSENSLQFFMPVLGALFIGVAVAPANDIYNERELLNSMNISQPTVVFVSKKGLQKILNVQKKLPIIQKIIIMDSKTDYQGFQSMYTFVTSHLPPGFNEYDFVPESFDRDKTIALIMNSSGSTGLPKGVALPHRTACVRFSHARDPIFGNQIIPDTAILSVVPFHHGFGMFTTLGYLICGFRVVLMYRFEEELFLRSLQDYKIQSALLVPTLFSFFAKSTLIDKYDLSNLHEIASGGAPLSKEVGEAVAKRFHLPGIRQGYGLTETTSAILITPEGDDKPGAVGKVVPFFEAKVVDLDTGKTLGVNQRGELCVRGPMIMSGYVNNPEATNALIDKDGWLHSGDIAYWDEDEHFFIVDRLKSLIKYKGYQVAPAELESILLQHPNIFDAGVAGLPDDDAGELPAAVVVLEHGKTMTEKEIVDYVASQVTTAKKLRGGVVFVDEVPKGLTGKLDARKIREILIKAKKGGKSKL
- assay_explanation: firefly luciferase enzyme inhibitors, primary screen, biochemical, luminescence, purified enzyme, 2006 set (AID 1141);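 also: cell-free assay with purified firefly luciferase at 100 ng per well in PBS; test concentration not given here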
- study_conditions: SteadyGlo luminescence, 30 min, higher = more signal, called active from +8 up or from −8 down
Please use label 1 whenever z-score is not below 0.5, and label 0 whenever it is.

> print(dat)
                                   compound  group.label
1  O=C1[C@H]2[C@H]3[C@H](O)[C@H](O)CC(=NOC[C@@H](O)COCc4ccco4)[C@H]3CC[C@H]2C(=O)N1C1CCCCC1      label 1
2  Cc1cc2c(nc1C)CCCN2CC(C)ON=C1[C@H]2CCn3c(=O)n(-c4ccccc4)c(=O)n3[C@H]2[C@H](O)[C@@H]2O[C@H]12 (stereo partly drawn)      label 0
3  CC(=O)OC[C@H]1O[C@H](CCON=C(C)CCC(=O)OC[C@H]2O[C@H](C#Cc3ccccc3)C=C[C@@H]2Oc2ccc(C)cc2)C=C[C@@H]1OC(C)=O      label 1
4  Cc1cc2c(nc1C)CCCN2CC(O)CN1CCN(C)CC1 (stereo not drawn)      label 0
5  CC(=O)OC[C@H]1O[C@H](CC=NOC[C@@H](C)[C@H](OCc2ccccc2)C(C)C)C=C[C@@H]1OC(C)=O      label 1
6  CN1C(=O)C2C(C1=O)C1C=C(CCCO)C2C(c2ccc(CN3CCCC3)cc2)N1C (stereo not drawn)      label 1
7  CS(=O)(=O)CCOC(=O)C1=CC(CCCO)=CC(c2cccs2)N(Cc2cccc(OC(F)(F)F)c2)C=C1C(=O)OCCS(C)(=O)=O (stereo not drawn)      label 0

* * *

- experimental_system: Focal adhesion kinase 1 (Homo sapiens) (UniProt Q05397)
- Sequence (Q05397 whole entry, looked up): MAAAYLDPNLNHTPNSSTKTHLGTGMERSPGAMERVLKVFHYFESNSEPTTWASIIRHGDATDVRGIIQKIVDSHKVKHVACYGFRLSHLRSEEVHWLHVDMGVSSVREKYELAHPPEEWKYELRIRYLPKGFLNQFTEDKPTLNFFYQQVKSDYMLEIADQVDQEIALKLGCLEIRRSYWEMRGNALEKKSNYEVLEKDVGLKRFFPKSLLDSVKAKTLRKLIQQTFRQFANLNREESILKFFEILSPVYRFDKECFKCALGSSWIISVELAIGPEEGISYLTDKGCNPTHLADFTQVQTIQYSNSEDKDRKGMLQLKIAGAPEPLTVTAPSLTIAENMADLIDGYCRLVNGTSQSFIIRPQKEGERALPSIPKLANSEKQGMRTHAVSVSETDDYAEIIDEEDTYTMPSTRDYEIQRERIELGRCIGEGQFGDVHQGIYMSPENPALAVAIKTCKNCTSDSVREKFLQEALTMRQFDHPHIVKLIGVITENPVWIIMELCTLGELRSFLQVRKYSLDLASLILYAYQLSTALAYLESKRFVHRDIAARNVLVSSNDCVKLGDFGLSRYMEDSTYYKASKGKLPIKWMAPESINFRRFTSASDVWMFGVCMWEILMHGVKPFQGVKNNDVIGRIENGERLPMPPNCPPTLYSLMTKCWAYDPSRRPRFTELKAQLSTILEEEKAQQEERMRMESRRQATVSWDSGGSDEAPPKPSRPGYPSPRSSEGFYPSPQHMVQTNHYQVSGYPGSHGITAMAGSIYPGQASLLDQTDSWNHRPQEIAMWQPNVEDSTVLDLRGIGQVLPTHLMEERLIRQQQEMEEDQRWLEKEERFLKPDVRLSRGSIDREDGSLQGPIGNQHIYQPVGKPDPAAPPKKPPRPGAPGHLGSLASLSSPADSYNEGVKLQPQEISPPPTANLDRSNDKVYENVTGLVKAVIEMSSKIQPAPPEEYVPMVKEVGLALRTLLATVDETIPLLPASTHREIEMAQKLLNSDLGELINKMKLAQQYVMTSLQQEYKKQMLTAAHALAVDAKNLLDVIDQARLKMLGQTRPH
- assay_explanation: small-molecule microarray binders of FAK, primary screen, biochemical, 635/667 nm fluorescence, BSA, DTT (AID 1130);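 also: composite of spot emission at 667 nm and signal to noise over triplicate slides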
- study_conditions: PTK2 binding, 635 nm fluorescence, higher = more signal
Let's look at some compounds and their measured composite z-score.
measurement_kind: composite z-score

compound	experimental_system	measured
CO[C@@H]1COC(=O)CC=C[C@@H](C)[C@@H]2C=C[C@H](O)[C@@H](COC(=O)CCC[C@H]1C)O2	Focal adhesion kinase 1 (Homo sapiens) (UniProt Q05397)	-0.382
COC(=O)C1=CCC(c2cccc(Cl)c2)O1 (configuration not stated)	Focal adhesion kinase 1 (Homo sapiens) (UniProt Q05397)	-0.126
CO[C@H]([C@@H](C)[C@H](OC)c1ccccc1)[C@H](C)[C@@H](OC)[C@H](C)C(C)=O	Focal adhesion kinase 1 (Homo sapiens) (UniProt Q05397)	0.27
CCOC(=O)CCN1C(=O)[C@H]2[C@H]3[C@H](O)[C@H](O)CC(=NOC[C@@H](O)COCc4ccco4)[C@H]3CC[C@H]2C1=O	Focal adhesion kinase 1 (Homo sapiens) (UniProt Q05397)	0.857
COCCOC(=O)N1C(=O)[C@@]2(c3cc(C#Cc4ccc(OC)cc4)ccc31)[C@H](C(=O)N1CCN(c3ncccn3)CC1)[C@H]1C(=O)O[C@H](c3ccccc3)[C@H](c3ccccc3)N1[C@@H]2c1ccc(OCCO)cc1	Focal adhesion kinase 1 (Homo sapiens) (UniProt Q05397)	0.253
CC(C)OC(=O)C=C1C[C@@H](c2ccc(C#N)cc2)O[C@@H](c2ccc(C#N)cc2)O1	Focal adhesion kinase 1 (Homo sapiens) (UniProt Q05397)	0.704
COC(=O)[C@H](C)NC(=O)CCC1CC(OC(=O)NCc2cccc3ccccc23)CC2(CCCC(COC(=O)NCC3CCCCC3)O2)O1 (some centres not stated)	Focal adhesion kinase 1 (Homo sapiens) (UniProt Q05397)	0.234
